# method-notes: yeast display, Sf9 membrane polyspecificity reagent, FACS + sequencing; frameworks hold sequencing errors

{"columns": ["biopolymer-sequence", "polyreactivity (PSR sort gate)"],
 "data": [
  ["QVQLVESGGGLVQAGGSLRLSCAASGRTFRYYAMGWYRQAPGKERELVASITKRGGSTYYADSVKGRFTISRDNAKNTVYLQMNSLKPEDTAVYYCNTRTGSFFQGYYWGQGTQVTVSS", "high polyreactivity"],
  ["QVQLVESGGGLVQAGGSLRLSCAASGRTFWANAMGWYRQAPGKERELVAAITIDGRTSYADSVKGRFTISRDNAKNTVYLQMNSLKPEDTAVYYCATEPFYTYGYYTYPYWYDYWGQGTQVTVSS", "low polyreactivity"],
  ["QVQLVESGGGLVQAGGSLRLSCAASGSTFFLYAMGWYRQAPGKERELVAAISTTGGSTNYADSVKGRFTISRDNAKNTVYLQMNSLKPEDTAVYYCAAGPSAQSIYDHWGQGTQVTLSS", "low polyreactivity"],
  ["QVQLVDSGGGLVQAGGSLRLSCPASGFTFVIYAMGWYRQEPGKESELVAAIRSGGRTYYADSVKGRFTISRDNAKNTVYLQMNSLKPEDTAVYYCAAVPDLKWFGYEYWGQGTQVTVSS", "high polyreactivity"],
  ["QVQLVESGGGLVQAGGSLRLSCAASGSIFTYYAMGWYRQAPGKEMELVAAISWSGGSTYYADSVKGRFTISRDNAKNTVYLQLNSLKPEDTAVYYCAKRYRKGRAYPGYEYWGQGTQVTVSS", "low polyreactivity"],
  ["QVQLVESGGGLVQAGGSLRLSCAASGSTFYGYAMGWYRQAPGKERELVAAIRRIGGTTYADSVKGRFTISRDNAKNTVYLQMNSLKPVDTAVYYCAAYGFSYRYRYYYWGQGTQVTVSS", "high polyreactivity"],
  ["QVQLVESGGGLVQAGGSLRLSCAASGIIFENYAMGWYRQAPGKERELVAAINKRGSRTYFADSVTGRFTISRDNAKNTVYLQMNSLKPEDTAVYYCNAVNPYYAPTDRRVGYDYWGQGTQVTVSS", "high polyreactivity"],
  ["QVQLVESGGGLVQAGGSLRLSCAASGFIFYIYAMGWYRQAPGKEWELVAAISGGGGSTYYAASVKGRFTISRDNAKNTVYLQINSLKPEDTAVSYCAARYDVAWYSKRYSWGQGTQVTVSS", "high polyreactivity"],
  ["QVQLVESGGGLVQAGGSLRLSCAASGSTFPKYAMGWYRQAPGKERELVAVITSGGSTYYADSVMGRFTISRDNAKNTVYLQMNSLKPEDTAVYYCAARKYRRFDYWGQGTQVTVSS", "high polyreactivity"],
  ["QVQLVESGGGLVQAGGSLRLSCAASGSILRSYAMGWYRQAPWKERELVAVINGSGGRTYYADSVKGRFTISRDIAKNTVYLQMNSLKPEDTAVYYCNADPGGRYPRRGYAHEGDYWGQGTQVTVSS", "low polyreactivity"],
  ["QVQLVDSGGGLVQAGGSLSLSCADSGFIFRAYEMGSYRQAPGNERALVAAISGSGGRTYYSDSVNGRFTISRDNAKNTVYLQKNSLKPEDTAVYYGKADFHYSIPGHAFATVYYWGQGTQVTVSS", "low polyreactivity"],
  ["QVQLVESGGGLVQAGGSLRLSCAASGSIFVTYAMGWYRQAPGKERELVAAITGRDGITYADSVKGRFTISCDNAKNTVYVQMNSLKPEDTAVYYCAAVSHGVYYQYRRRYYSWGQGTQVTVSS", "high polyreactivity"],
  ["QVQLVESGGGLVQAGGSLRLSCAASGFTFRVYAMGWYRQAPGKERELVAVISGTGGRTYYADSVKGRFTISRDNAKNTVYLQMNSLKPEDTAVYYCARRGRPPAIYDYWGQGTQVTVSS", "high polyreactivity"],
  ["QVQLVESGGGLVQAGGSLRLSCAASGITFYVYAMGGSRQAPGKERELVAAMTRSGGITSYADSVKGRFTISRDNAKNTGYLQMNSLKPEDTAVYYCAAERTNQHYHIQGVGYWGQGTQVTVSS", "low polyreactivity"],
  ["QVQLEESGGGLVQAGRSLRLSCAASGRTFIRNAMGRYRHAPGQQRELVAAISSRGGRTYYADSVKGRFTISRDNAKTTVSLEMNSLKPEDTAVYYCAADFTYKLDGYDYWGQGSQVTVSS", "high polyreactivity"],
  ["QVQLVESGGGLVQAGGSLRLSCAASGRIFAHYEMGWYRQAPGKERELVAAISSGGSTYYADSVKGRFTISRDNAKNTVYLQMNSLKPEDTAVYYCNKRPVRRKYDYWGQGTQVTVSS", "low polyreactivity"],
  ["QDHIVESGGGLVQAGGSLRLSCAASGSTFKLYAMGWYRQAPGKERELVAAITRSGTRTYYADSVKGRFTISRDNAKNTVYLQMNILKPEDTAVYYCAADGYRISGYDYWGQGTQVTVSS", "high polyreactivity"],
  ["QVQLVESGGGLVQAGGSLRLSCAASGSIFVPNAMGWYRQAPGNERELVADLTRRGGSTYYADSVKGRFTISRDNAKNTVYLQMNSLKPEDTAVYYCNATYLTRSTRLSDFDYWGQGTQVTVSS", "high polyreactivity"],
  ["QVQLVESGGGLVQAGGSLRLSCAASGRTFGYYAMGWYRQAPGNERELVASISQSGGRTYYADSVKGRFTISRDNAKNTVYLQMNSLKPVDTAVYLCNAVYYRRTGYEYWGQGSQVTVSS", "high polyreactivity"],
  ["QVQLVESGAGIVQAGGSLRLSCAASVSTFQSYAMGLYRPAPGKERELFAAISFSGGSTYYADSVKGRFTISRDNAKNTVYLQMNSLKPEDTAVYYCAKRGWVYFHGYDYWGQGTQVTVSS", "low polyreactivity"],
  ["QVQLVESGGGLVQAGGSLRLSCAASGRIFGGNAMVWYRQAPGKERELVAAITTRGGSTYADSVKGRFTISRDNAKNTVYLQMNSLKPEDSAVYYCNKRYVIRRRGYDYWGQGTQVTVSS", "low polyreactivity"]
]}
